So I've got a bunch of binders here, and I need their pKi values.
Molecular target: T1, human plasma kallikrein (PKal) (human, UniProt P03952 20-638)
T1 construct: Active PKal is cleaved at the marked R/I site into two disulfide-linked chains; also called human Pkal; active PKal
T1 sequence (P03952 20-638 limits assumed): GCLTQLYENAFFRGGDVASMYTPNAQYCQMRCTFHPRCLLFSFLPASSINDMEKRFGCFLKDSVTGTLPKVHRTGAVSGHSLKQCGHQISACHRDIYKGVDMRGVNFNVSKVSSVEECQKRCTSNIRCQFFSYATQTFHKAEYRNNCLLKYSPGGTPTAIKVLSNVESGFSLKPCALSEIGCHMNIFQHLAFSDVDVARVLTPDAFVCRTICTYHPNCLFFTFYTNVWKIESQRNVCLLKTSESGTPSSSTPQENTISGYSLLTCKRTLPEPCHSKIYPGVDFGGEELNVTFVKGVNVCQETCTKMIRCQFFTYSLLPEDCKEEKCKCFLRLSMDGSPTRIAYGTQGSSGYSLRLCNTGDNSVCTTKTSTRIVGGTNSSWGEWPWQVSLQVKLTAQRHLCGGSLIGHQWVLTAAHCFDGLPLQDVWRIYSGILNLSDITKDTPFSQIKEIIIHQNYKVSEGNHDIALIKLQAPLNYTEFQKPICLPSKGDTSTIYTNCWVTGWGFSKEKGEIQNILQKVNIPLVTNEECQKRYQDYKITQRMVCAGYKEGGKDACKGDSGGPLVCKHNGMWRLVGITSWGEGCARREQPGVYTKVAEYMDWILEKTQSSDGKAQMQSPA
Test: Ki,app; Fab inhibition of PKal cleavage of a substrate peptide, Morrison fit
# pKi is unitless: minus log10 of the molar concentration; print number only

Request: Assign pKi to the following record: X133-B02 (Fab, V domains shown, HC CDR3 variant of M0162-A04, tested as Fab) VH: EVQLLESGGGLVQPGGSLRLSCAASGFTFSHYIMMWVRQAPGKGLEWVSGIYSSGGITVYADSVKGRFTISRDNSKNTLYLQMNSLRAEDTAVYYCAYRRIGIPRRDAFDIWGQGTMVTVSS VL: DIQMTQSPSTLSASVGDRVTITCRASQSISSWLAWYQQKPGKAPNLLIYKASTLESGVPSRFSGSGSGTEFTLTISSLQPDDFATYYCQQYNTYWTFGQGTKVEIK
Response: 8.66

Request: Assign pKi to the following record: M0202-H03 (Fab, V domains shown) VH: EVQLLESGGGLVQPGGSLRLSCAASGFTFSHYIMMWVRQAPGKGLEWVSGIYSSGGITVYADSVKGRFTISRDNSKNTLYLQMNSLRAEDTAVYYCAYRRTGVPRWDDFDIWGQGTMVTVSS VL: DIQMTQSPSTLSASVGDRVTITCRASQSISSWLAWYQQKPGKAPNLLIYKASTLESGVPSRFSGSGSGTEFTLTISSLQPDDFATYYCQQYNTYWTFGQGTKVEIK
Response: 10.00

Request: Assign pKi to the following record: M0200-B01 (Fab, V domains shown) VH: EVQLLESGGGLVQPGGSLRLSCAASGFTFSHYIMMWVRQAPGKGLEWVSGIYSSGGITVYADSVKGRFTISRDNSKNTLYLQMNSLRAEDTAVYYCAYRRTGIPRRDAFDSWGQGTMVTVSS VL: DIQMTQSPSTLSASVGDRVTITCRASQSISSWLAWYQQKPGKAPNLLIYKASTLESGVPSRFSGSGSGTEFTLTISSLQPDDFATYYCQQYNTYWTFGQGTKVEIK
Response: 8.44
